In this section, each of the binders is paired with its reported IC50.
Tested system: T1, TBD-17 (HC S104A)
T1 construct: Fab; also called HC S104A mutant
T1 sequence (VH, as listed by the source, chain 1 of 2): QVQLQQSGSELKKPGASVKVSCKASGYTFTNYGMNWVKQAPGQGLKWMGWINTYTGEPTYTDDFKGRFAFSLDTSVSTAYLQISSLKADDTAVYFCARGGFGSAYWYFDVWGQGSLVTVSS
T1 sequence (VL, as listed by the source, chain 2 of 2): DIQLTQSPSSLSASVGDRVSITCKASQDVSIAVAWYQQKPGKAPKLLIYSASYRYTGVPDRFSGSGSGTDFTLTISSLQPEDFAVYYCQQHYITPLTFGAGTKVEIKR
Test details: competition ELISA, peptide vs Fab binding to captured biotin-TROP2
Where no end group is shown, it is not given here.
Measured endpoint: IC50 (nM)

binder="IDFCMLYNWPICAG (cysteine pairing not given here; also: biotinylated, site not given here) [Peptide-3]" assay_value=1010
binder="IDFCLLYDWPICGR (cysteine pairing not given here; also: biotinylated (site not given here)) [Peptide-17]" assay_value=2070
binder="VDFCKLYNWPVCQT (cysteine pairing not given here; also: biotinylated, site not given here) [Peptide-5]" assay_value=1790
